// reported protein stability index for each item listed
B1: LMNB1 (parent)
chain: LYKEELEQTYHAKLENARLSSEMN

- Variants of: B1
- assay-details: protein stability index of a GFP-peptide fusion (GPS, HEK-293T) (PSI 1-6); higher = more stable;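 also: lentivirally expressed fusions sorted by FACS into six bins by GFP to DsRed ratio, PSI derived from sequencing read proportions per bin multiplied by bin number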
- test-context: c terminus: a fixed tail appended

ordered-residues: LYKELLEQTYHAKLENARLSSEMN
protein stability index: 3.89
--
ordered-residues: LYKEELEQTYHGKLENARLSSEMN
protein stability index: 3.44
--
ordered-residues: LYKEELEQTYHAKLINARLSSEMN
protein stability index: 2.44
--
ordered-residues: LYKEELEQTYHAKLQNARLSSEMN
protein stability index: 2.58
--
ordered-residues: LYKEELEQTYHAKLANARLSSEMN
protein stability index: 2.61
--
ordered-residues: MYKEELEQTYHAKLENARLSSEMN
protein stability index: 3.06
--
ordered-residues: LYQEELEQTYHAKLENARLSSEMN
protein stability index: 2.56
--
ordered-residues: LYKEELEQTDHAKLENARLSSEMN
protein stability index: 4.97
--
ordered-residues: LYKEVLEQTYHAKLENARLSSEMN
protein stability index: 2.77
--
ordered-residues: LYKECLEQTYHAKLENARLSSEMN
protein stability index: 2.32
--
ordered-residues: LYKEELEQTYHAKLENAELSSEMN
protein stability index: 3.72
--
ordered-residues: LYKEECEQTYHAKLENARLSSEMN
protein stability index: 3.8
--
ordered-residues: LYKSELEQTYHAKLENARLSSEMN
protein stability index: 2.94
--
ordered-residues: LYKEELEQTYHAKLENARLSSEDN
protein stability index: 2.82
--
ordered-residues: LYKEELEQSYHAKLENARLSSEMN
protein stability index: 3.92
--
ordered-residues: LYKEELEQDYHAKLENARLSSEMN
protein stability index: 4.61
--
ordered-residues: LYKEELEQKYHAKLENARLSSEMN
protein stability index: 3.1
--
ordered-residues: LYKEELEQTYHAKLPNARLSSEMN
protein stability index: 3.31
--
ordered-residues: LYKPELEQTYHAKLENARLSSEMN
protein stability index: 3.68
--
ordered-residues: LDKEELEQTYHAKLENARLSSEMN
protein stability index: 4.18
--
ordered-residues: LYCEELEQTYHAKLENARLSSEMN
protein stability index: 2.64
--
ordered-residues: LYKEELEQTYHAKLENKRLSSEMN
protein stability index: 3.9
--
ordered-residues: LYKEELEQTYHAKLELARLSSEMN
protein stability index: 3.23
--
ordered-residues: LYKEELEQTYHAKLTNARLSSEMN
protein stability index: 2.25
--
ordered-residues: LYKEELEQTYHAKLENAHLSSEMN
protein stability index: 3.1
--
ordered-residues: LYKEELEQTYHKKLENARLSSEMN
protein stability index: 4.32
--
ordered-residues: LCKEELEQTYHAKLENARLSSEMN
protein stability index: 2.78
--
ordered-residues: LYKEELEQTYHAKLENARLQSEMN
protein stability index: 2.91
--
ordered-residues: LYKEELEQTYHAKHENARLSSEMN
protein stability index: 4.59
--
ordered-residues: AYKEELEQTYHAKLENARLSSEMN
protein stability index: 2.92
--
ordered-residues: LYKEELEVTYHAKLENARLSSEMN
protein stability index: 2.09
--
ordered-residues: LYKEELEQTYHAKLENARRSSEMN
protein stability index: 3.79
--
ordered-residues: LYKEELETTYHAKLENARLSSEMN
protein stability index: 3.21
--
ordered-residues: LYKEELEQTYHAKLENARLSSEGN
protein stability index: 2.8
--
ordered-residues: LFKEELEQTYHAKLENARLSSEMN
protein stability index: 1.96
--
ordered-residues: LYKEELEQTYHAKLENARLVSEMN
protein stability index: 2.88
--
ordered-residues: LYKEELEQTYHAKLENARLSSKMN
protein stability index: 2.61
--
ordered-residues: LYKEELEQTYHAKLENARLSSFMN
protein stability index: 1.93
--
ordered-residues: LYKEELEQTYHAKLENIRLSSEMN
protein stability index: 1.97
--
ordered-residues: LYKEELEQTYHAKLENAGLSSEMN
protein stability index: 3.35
--
ordered-residues: LYKEEEEQTYHAKLENARLSSEMN
protein stability index: 4.49
--
ordered-residues: LYKEEWEQTYHAKLENARLSSEMN
protein stability index: 4.74
--
ordered-residues: LIKEELEQTYHAKLENARLSSEMN
protein stability index: 2.09
--
ordered-residues: LYKEELEATYHAKLENARLSSEMN
protein stability index: 2.19
--
ordered-residues: LYKEFLEQTYHAKLENARLSSEMN
protein stability index: 2.28
--
ordered-residues: LYKEELEQTYIAKLENARLSSEMN
protein stability index: 3.12
--
ordered-residues: LYKEELEQTYHAKLENARLSSEFN
protein stability index: 2.42
--
ordered-residues: LYKEELEQTYHAKLENARLSSWMN
protein stability index: 1.74
--
ordered-residues: LYKEELEQTYHAKLENAALSSEMN
protein stability index: 3.26
--
ordered-residues: LYAEELEQTYHAKLENARLSSEMN
protein stability index: 1.94
--
ordered-residues: LYKEEFEQTYHAKLENARLSSEMN
protein stability index: 3.21
--
ordered-residues: LYKEELEQTYHMKLENARLSSEMN
protein stability index: 2.36
--
ordered-residues: GYKEELEQTYHAKLENARLSSEMN
protein stability index: 3.53
--
ordered-residues: LYKEELEQTYHPKLENARLSSEMN
protein stability index: 3.73
--
ordered-residues: LYKEELEQTYHAKLENASLSSEMN
protein stability index: 2.92

Cited source for all entries: the supplement of paper PMC10567573
